- method: soluble on expression in E. coli; label from the status in PepcDB or PDB records
measured.metric: soluble on expression in E. coli

MFIYCIPLISQSMIPMALDKTINVMKVTGMFAATYFTGDNRTPFFAFIICLKSFKLENMDQPPKNKSNIFPAVEDSLLLEHHHHHH	not soluble
METTHSLTTDNAPTEDQPILSVTDLHMVSGTHLPELKIYAGLSLVHCGRENSATTLSMTLAGRMKPISGTIELKVQDSDKVLTTPRQLHKAVALAGVPELDSLERLVPVTAAVREQLAWSQPWYRRVPRDVTKSETFINAAKLLDLPNSKEFARQSIGDLDPLTRFRLRIALALIARPHTDLLIVDDIDQIRSLRLRADLLRELKNIAASIPVVAMSANDDVDKIADHEIHVAGALQRKQKAKA	not soluble
VGKPKMDVDLLQVDADLKKEIFDAYYNTMKTAVMTEEKLAREVEIDKVKDTVKEVYAEKFSEHEEEAQLLKEVKQIAEDLEKDVVRELITIDKIRPDGRKLDEIRH	not soluble

----------
- method: soluble on expression in E. coli; label from the status in PepcDB or PDB records
measured.metric: soluble on expression in E. coli

NKFNTWNDSRGNYWSDYEGSDENGDGIGDSAYAVNPEAGSMDYMPLMEYLHSSPVLPTARFTSDITEGFAPLSVRFKDFSENATSRLWMFGDGNTSDSPSPLHTFFNEGEYIVSLIVSNENDSDSASVTIRA	soluble
SSLDDKPQFPGASAEFIDKLEFIQPNVISGIPIYRVMDRQGQIINPSEDPHLPKEKVLKLYKSMTLLNTMDRILYESQRQGRISFYMTNYGEEGTHVGSAAALDNTDLVFGQYREAGVLMYRDYPLELFMAQCYGNISDLGKGRQMPVHYGCKERHFVTISSPLATQIPQAVGAAYAAKRANANRVVICYFGEGAASEGDAHAGFNFAATLECPIIFFCRNNGYAISTPTSEQYRGDGIAARGPGYGIMSIRVDGNDVFAVYNATKEARRRAVAENQPFLIEAMTYAIGHASTSDDSSAYRSVDEVNYWDKQDHPISRLRHYLLSQGWWDEEQEKAWRKQSRRKVMEAFEQAERKPKPNPNLLFSDVYQEMPAQLRKQQESLARHLQTYGEHYPLDHFDK	soluble

----------
- method: soluble on expression in E. coli; label from the status in PepcDB or PDB records
measured.metric: soluble on expression in E. coli

INMEEIREFAKNFKIRRLSLGLTQTQVGQAMTATEGPAYSQSAISRFEKLDITPKSAQKLKPVLEKWLNEAELRNQEGQQNLMEFVGGEPSKKRKRRTSFTPQAIEALNAYFEKNPLPTGQEITEMAKELNYDREVVRVWFSNRRQTLKNT	soluble
MTTRVLYVRHAHAHGRQTWGGDDNKRPLDKKGRRQAEMLVPMLLPFKPTAIYSAVPDRCQATALPLADELGLDVSVNRLFGDDAWETDPEACKKRFTDVVAQGGVPMIVGQGDIIPEMIKWFSENGTLPIDEKIKAKKGSVWVLSFHDGVFTGADYLEHHHHHH	soluble
MNKTKNYSDETIDAFHRGKFYLVQPRLCGHRSGMDAMLLASLVPNNFKGKVVDLGAGAGAVGLAVAARCLDVHVTLVERSAFMVSYAQKTLMLKQNENLSKRVCLLKADVTLKGRSRLEAGLVDNAFDFAIMNPPFNNPVDRKTPDEKKFEAHVMPESMFDDWLRSAAAIVKPGGYLGLIARPQSLTDILCALEGRFGNICVIPIHARTEKAAIRVLFYAKRGSRAALSLLRPLVIHEDGCHIFSPKIDAINNGHISLWELLK	not soluble
MNYHQYYPIDVVNGPGTRCTLFVSGCVHQCKGCYNQSTWSLSSGHRYTQEMEDKIIADLKDTRIKRRGLSLSGGDPMHPANLSAVLQLVQRVKTECPDKDIWLWTGYTLAELDDSQQALLPYIDVLVDGKFIQEQADPGLEWRGSANQVIHRFTLLEHHHHHH	not soluble

----------
- method: soluble on expression in E. coli; label from the status in PepcDB or PDB records
measured.metric: soluble on expression in E. coli

Use the examples below as a reference point.
GSHMASDLKNPYERIQAEAYDAMSGIQTEGTDDDGGGDNIGWINDGDWVKYERVHFERDASSIEVRVASDTPGGRIEIRTGSPTGTLLGDVQVPNTGGWQQWQTVTGNVQIQPGTYDVYLVFKGSPEYDLMNVNWFVFRANG	soluble
MITLWENRDKWEEDSNLHGLLLTIIKNKALNYLAHLQVRLRAEEEINSHSQRELDLRISTLEACEPDAIFDSEIQHIVQKALKRMPNQSRQIFILSRYQNTPNKKIAEQLGISVKSVEFHITKALKILRTELKDYLVSILF	not soluble
MAHHHHHHMKPVYRYAMNHEYNINSICPIAYSDQFATADDATVLLWCTEYPDTSIETHDMRSPYEDGPRETICAVRNFPHEPFLFFVATSGGSVRVVDTRQTLRWGDQAAQAFINPPREEDEPFSNVTNSICDCALSPSGRYIAGRDFMSICLWDIRMAGSGGARNAPATPRRQAPAARGGDGNPECSMVRRWALHPHLRDDLDTIYQSNLLFDKFDVQFLSSRQVCTGGFNNTLYTMDVEGTSADAASDIRTFQLLKTEGISEFRRTTVSAHRRGEDRISTGQGLGSRMTLMSRPYMSMSGACGMMVACGQAVLQLSYNGLSK	not soluble
MEINENPTSFKGFKILQLSDLHNKSFGNNNNRLVKKIIGENPDIIVMTGDMVNAKDNDFEVFINLAEQISKSFDVYYIVGNHEQDLNEDKRKILMDKLSEIGIRVLDNEKVTISRGAESINLYGLWFNLRYYKDLKNEYTKDVFFGTKQIQSILGDLDTDSYNILLTHNPLYADTYSNWGADLTLSGHIHGGMIRIPFVGGLLSPEREFFPEYDAGKYQVNGKILIVNRGLGNGDFGIRVFNPPEISVIMLSNLEHHHHHH	not soluble
MGSDKIHHHHHHMDDQLNALRDLAIPFPITASFRQQARAYASQYFTQDTHERVYLNTLAVLVANAYFRLLNFQTNLTKAERWNAACRVWSEANEIELVGLGNLECRVITAGQQTIILPPETWADRIGYLFVEITSSEKVATLIGFLPAFDAETSGEEVAISTTGYAYADLKSMDEAMDYLTQQEASARSKTGEIDNLTRDFAAKKITYLRNWLNNVYDSDWEPAMRELSAATCKKKIQLVGQVFEMQLSVSQSNGAITVTVIVRLESGFLPIGIQVSVPDESEIYTETVSTPADLIRIPLEFSPGEEFWVELRWGETFTREYFIA	not soluble

We now examine a further sequence.
So what does the record say about soluble on expression in E. coli for MGSDKIHHHHHHMKWCSSMSDPKPCIICVAITGSVPTKAANPAVPITVAEQIESTHAAFEAGAAICHAHVRNDDETPSSDPEKFARLKEGVEGHCPGMIVQLSTGGRSGASKERGGMLPLRPDMASLSVGSNNFPTRVYENPPDLVDWLAAEMRTYDIKPEIEAFDLSHIHHAALMHQRGQLAGHPYVQFVMGVKNAMPADRETFDFYVATMTRLLPESEWCAAGIGPNQIVLNEWAIAAGGHARTGLEDNVRWDKQTLAPSNAALVERTAEICEKNGRPVATTAQAREILGLRT ? not soluble

----------
- method: soluble on expression in E. coli; label from the status in PepcDB or PDB records
measured.metric: soluble on expression in E. coli

MNVCRLYGEELQKSQSNTFEDYFNRSEVTYRDGGEERTLSVLYLRHFEAALLDWLPYESDPLFTANGRDIHLRDIIALVCLWKNPAYRQRKRVYIHDEEELRRYFAEVDAKTLQALVSEWAETGECRLPERSA	not soluble
MGSDKIHHHHHHGIKNGLKEEPKINVGIKGGFNSSMYFTSRLELDGERMEDVQNNYKVGYFAAMFFRVHMKRHFIQPEIMYNIYKGEIAFNKNQNKENTLPELAKLNSTIHSLELPILYGYSFVKSRPYGMALFIGPKLEYVWKHKTSEEFEGFGYSGIKEELHPINISSVIGLGVNIANIFFDFRYEIGLTNISKSIIYKKDTDGIMSQEKGIFINRHRNVLSFSLGVIF	not soluble
MGSDKIHHHHHHMSKPGAELEEVFSSVQGEGMLIGLRQVFIRFRGCNLTCDYCDTPAGTPAEPCRIEQTPGRRDFVPADNPVSLDRVAALVEGWQRGWPGVHDSISITGGEPLLRHDILMQWLPVLREHLPVYLETNGVMHAALGLVINHVDIIGMDIKIPSTSGCTDLWDDHRQFLEIANTRRAFIKIVVGEETEDWEITRASEIIAGVNRDIPLILQPVTRAGDTLGIKPVKALELQELACRYLAEVRIIPQTHRFMGQL	not soluble

----------
- method: soluble on expression in E. coli; label from the status in PepcDB or PDB records
measured.metric: soluble on expression in E. coli

MGSDKIHHHHHHVKDGFDLVDTGDPFDTITPVIPISDRPRSQSVVAGTLNDPYRRQAVADARSLWRKSIPGSRGVVAAYLASQGIQLDEIPANLRFVLDHPYMKKSGGLYHELHRGPCVLGGIFSEAGQLLGVNQIWVDPKPPHGRASIQMDGDHMPAEIVRGSCKGGFLPLVWPEAATALVVARSLEAALRAYASRPSGLEDAAYWAVVDLKVMSGKMQRQKGVRYSGLPDLSDDTSFVAPHWVKRLVFLQEDDRTGTRQKLESGLKRSMHVRPGLRASIVRIGSAAKGGV	not soluble
MGSDKIHHHHHHMKSFRNIMGDSQNLDKRIQKIKQNVINDTDVKHFLEKNRSNITNEMIDEDLNVLQEYKDQQKVYDGHRYDDCPNFVKGHVPELYIENERIKIRYLPCPCKIKHDEERFDSQLITSHHMQRDTLHAKLKDIYMNNRERLDVAMAADQICTAITNDEKVKGLYLYGPFGTGKSFILGAIANQLKSQKISSTIVYLPEFIRTLKGGFKDGSFEKKLQRVREANILMLDDIGAEEVTPWVRDEVIGPLLHYRMVHELPTFFSSNFNYSELEHHLSITRDGTEKTKAARIIERIKTLSTPYYLTGKNFRNN	not soluble
